Target Under Test: Cyno CD3εδ-Fc (cynomolgus) (UniProt Q95LI8)
Sequence (chain, as listed by the source mutant, chain 1 of 2): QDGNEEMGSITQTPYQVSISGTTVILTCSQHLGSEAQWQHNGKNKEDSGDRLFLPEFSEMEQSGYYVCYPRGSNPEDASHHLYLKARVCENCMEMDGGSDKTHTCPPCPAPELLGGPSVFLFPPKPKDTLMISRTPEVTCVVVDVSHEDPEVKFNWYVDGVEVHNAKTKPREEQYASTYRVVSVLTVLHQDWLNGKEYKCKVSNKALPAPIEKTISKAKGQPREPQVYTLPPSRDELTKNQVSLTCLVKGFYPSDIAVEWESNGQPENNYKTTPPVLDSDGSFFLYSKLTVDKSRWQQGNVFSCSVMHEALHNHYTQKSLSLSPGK
Sequence (Q95LI8 22-105, stated change not applied, chain 2 of 2): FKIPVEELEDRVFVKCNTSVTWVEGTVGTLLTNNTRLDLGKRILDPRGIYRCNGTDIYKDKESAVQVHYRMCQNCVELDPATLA
Experiment: KD of scFv-Fc or IgG on cyno CD3εδ-Fc; instrument not given
pKd: −log10 of the molar value.

Binder	pKd
ADI-45969 (antibody, V domains shown, also called Ab5) VH: QVQLVQSGAEVKKPGASVKVSCKASGFNIKDYYMHWVRQAPGQRLEWIGWIDLENANTVYDAKFQGRVTITRDTSASTAYMELGSLRSEDTAVYYCARDAYGRYFYDVWGQGTLVTVSS VL: DIVMTQSPDSLAVSLGERATINCKSSQSLLNARTGKNYLAWYQQKPGQPPKLLIYWASTRESGVPDRFSGSGSGTDFTLTISSLQAEDVAVYYCAQSYFRRTFGGGTKVEIK	8.82
ADI-45961 (antibody, V domains shown, also called Ab24) VH: QVQLVQSGAEVKKPGASVKVSCKASGFNIKDYYMHWVRQAPGQRLEWIGWIDLENANTVYDAKFQGRVTITRDTSASTAYMELSSLRSEDTAVYYCARDAYGRYFYDVWGQGTLVTVSS VL: DIVMTQSPDSLAVSLGERATINCKSSQSLLNARTRRNYLAWYQQKPGQPPKLLIYWGSTRESGVPDRFSGSGSGTDFTLTISSLQAEDVAVYYCKQSYFRRTFGGGTKVEIK	8.52
ADI-45962 (antibody, V domains shown, also called Ab25) VH: QVQLVQSGAEVEEPGASVKVSCKASGFNIKDYYMHWVRQAPGQRLEWIGWIDLENANTVYDAKFQGRVTITRDTSASTAYMELSSLRSEDTAVYYCARDAYGRYFYDVWGQGTLVTVSS VL: DIVMTQSPDSLAVSLGERATINCKSSQSLLNARTGKNYLAWYQQKPGQPPKLLIYWASTRESGVPDRFSGSGSGTDFTLTISSLQAEDVAVYYCVQSYFRRTFGGGTKVEIK	8.85
ADI-45964 (antibody, V domains shown, also called Ab27) VH: QVQLVQSGAEVKKPGASVKVSCKASGFNIKDYYIHWVRQAPGQRLEWIGWIDLENANTVYDAKFQGRVTITRDTSASTAYMELSSLRSEDTAVYYCARDAYGRYFYDVWGQGTLVTVSS VL: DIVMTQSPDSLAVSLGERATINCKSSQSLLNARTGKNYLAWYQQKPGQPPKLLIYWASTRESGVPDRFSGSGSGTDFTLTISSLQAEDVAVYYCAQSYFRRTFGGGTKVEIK	8.70
ADI-45985 (antibody, V domains shown, also called Ab22) VH: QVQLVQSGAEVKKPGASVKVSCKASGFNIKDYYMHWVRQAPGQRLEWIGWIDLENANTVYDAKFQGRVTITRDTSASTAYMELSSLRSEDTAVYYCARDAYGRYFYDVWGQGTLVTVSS VL: DIVMTQSPDSLAVSLGERATINCKTSQSLLNARTNKNYLAWYQQKPGQPPKLLIYWASTRESGVPDRFSGSGSGTDFTLTISSLQAEDVAVYYCVQSYFRRTFGGGTKVEIK	8.92
